All values here come from ChEMBL document CHEMBL1687800.

Property: MIC; scope: individual compounds
- System: Escherichia coli
- experiment-description: Antibacterial activity against Escherichia coli TOP10
- Type: functional
measurement-type: MIC

>>> measurement("CO/N=C(\\C(=O)N[C@@H]1C(=O)N2C(C(=O)O)=C(COC(C)=O)CS[C@H]12)c1csc(N)n1")
"0.12 mg/L"
>>> measurement("CCN1CCN(C(=O)N[C@@H](C(=O)N[C@@H]2C(=O)N3[C@@H]2SC(C)(C)[C@@H]3C(=O)O)c2ccccc2)C(=O)C1=O")
"1 mg/L"
>>> measurement("CO[C@@]1(NC(=O)Cc2cccs2)C(=O)N2C(C(=O)O)=C(COC(N)=O)CS[C@@H]21")
"4 mg/L"
>>> measurement("C[C@@H](O)[C@H]1C(=O)N2C(C(=O)O)=C(S[C@@H]3CN[C@H](C(=O)Nc4cccc(C(=O)O)c4)C3)[C@H](C)[C@H]12")
"0.06 mg/L"
>>> measurement("CC(C)(O/N=C(\\C(=O)N[C@@H]1C(=O)N2C(C(=O)[O-])=C(C[n+]3ccccc3)CS[C@H]12)c1csc(N)n1)C(=O)O")
"0.06 mg/L"
>>> measurement("CC1(C)S[C@@H]2[C@H](NC(=O)[C@H](N)c3ccc(O)cc3)C(=O)N2[C@H]1C(=O)O")
"4 mg/L"
>>> measurement("CC1(C)S[C@@H]2[C@H](NC(=O)[C@H](C(=O)O)c3ccsc3)C(=O)N2[C@H]1C(=O)O")
"4 mg/L"
>>> measurement("C[C@@H](O)[C@H]1C(=O)N2C(C(=O)O)=C(S[C@@H]3CN[C@H](C(=O)N(C)C)C3)[C@H](C)[C@H]12")
"0.06 mg/L"

====

- Tested on: Escherichia coli
- experiment-description: Antibacterial activity against Escherichia coli TOP10 expressing metallo-beta-lactamase NDM-1
- Assay type: functional
Property: MIC; scope: individual compounds
measurement-type: MIC (µg/mL)

>>> measurement("CC(C)(O/N=C(\\C(=O)N[C@@H]1C(=O)N2C(C(=O)[O-])=C(C[n+]3ccccc3)CS[C@H]12)c1csc(N)n1)C(=O)O")
128
>>> measurement("CO[C@@]1(NC(=O)Cc2cccs2)C(=O)N2C(C(=O)O)=C(COC(N)=O)CS[C@@H]21")
256
>>> measurement("C[C@@H](O)[C@H]1C(=O)N2C(C(=O)O)=C(SCCNC=N)C[C@H]12 [IMIPENEM ANHYDROUS]")
4
>>> measurement("CO/N=C(\\C(=O)N[C@@H]1C(=O)N2C(C(=O)O)=C(COC(C)=O)CS[C@H]12)c1csc(N)n1")
256
>>> measurement("C[C@H]1[C@H](NC(=O)/C(=N\\OC(C)(C)C(=O)O)c2csc(N)n2)C(=O)N1S(=O)(=O)O")
0.25
>>> measurement("C[C@@H](O)[C@H]1C(=O)N2C(C(=O)O)=C(S[C@@H]3CN[C@H](C(=O)N(C)C)C3)[C@H](C)[C@H]12")
3
